Tested on: CYP3A4/5
Experiment: clinical
Details: human, in vivo, iv, 1 mg, AUCMDZ
Quantity Measured: AUC (µM·h)
Write the answer as a number in µM·h, unit excluded.

Q: Recorded AUC for Cc1ncc2n1-c1ccc(Cl)cc1C(c1ccccc1F)=NC2 [midazolam, reference compound] , please?
A: 0.16

* * *

Tested on: CYP3A4/5
Assay: clinical
Conditions: human, in vivo, AUCMDZ
Quantity Measured: AUC (µM·h)
Write the answer as a number in µM·h, unit excluded.

Q: Recorded AUC for Cc1ncc2n1-c1ccc(Cl)cc1C(c1ccccc1F)=NC2 [midazolam, reference compound] , please?
A: 0.227

Entry source: paper PMC3830930
